target: Hexose transporter 1 (Plasmodium falciparum) (UniProt O97467); assay: ST_JUDE_LEISH: Cytotoxicity at 2uM final concentration against transgenic Leishmania Mexicana promastigotes LmPfHT that are glucose transport deficient and complemented with the Plasmodium falciparum hexose transporter. Activity is measured by DNA content using SYBR green in vitro; type: functional
A collection of molecules and their measured inhibition
State just the number; it will be interpreted in %.

Here's what some known entries look like.
COc1ccc2nccc(N3CCC(CCNCc4ccc5c(n4)NC(=O)CS5)CC3)c2c1: 9.44
O=C(Nc1ccc([N+](=O)[O-])cc1Cl)c1cc(Br)cc(Cc2ccccc2)c1O: 3.32
CCc1cc([C@H]2O[C@@H](n3cnc4c(NCC(c5ccccc5)c5ccccc5)nc(NCCNc5ccccn5)nc43)[C@H](O)[C@@H]2O)on1: -0.53
Cc1cc(Nc2cccc(C#N)c2)nc(Nc2ccccc2C)n1: 91.1
CCc1cc(C(=O)c2cccc(C)c2)c(NC(=O)CN2CCN(C(=O)c3ccco3)CC2)s1: 2.67

-- ask Item under review: CS(=O)(=O)c1ccc(Nc2ncc(-c3ccc(S(C)(=O)=O)cc3)c(OCC(F)(F)F)n2)cc1 . Reported inhibition?
-- reply 0.18

-- ask Same again, this time with Cc1c(CCNC(=O)CCCN2CC(C)CC(C)C2)c2ccccc2n1C (stereo unspecified)
-- reply 3.38

-- ask Same again, this time with Cc1cccc(-c2nc3cc(NC(=O)c4ccc([N+](=O)[O-])o4)ccc3o2)c1
-- reply 7.69

-- ask Same again, this time with Nc1nc(N)c2cc(C#Cc3ccc(-c4ccccc4)cc3)ccc2n1
-- reply 10.9

-- ask Same again, this time with Cc1nc(C)c(-c2ccc(Oc3ccc(Cl)cc3)c(Cl)c2)c(O)c1Br
-- reply 3.03

* * *

biological target: Glucose transporter (Leishmania mexicana); experiment: ST_JUDE_LEISH: Cytotoxicity at 2uM final concentration against transgenic Leishmania Mexicana promastigotes LmGT2 that are glucose transport deficient and complemented with the L. Mexicana glucose transporter 2. Activity is measured by DNA content using SYBR green in vitro; type: functional
reported endpoint: inhibition (%)
State just the number; it will be interpreted in %.

CC(C)c1ccc(S(=O)(=O)Nc2cccc(CCN3CCC(N4CCCCC4)CC3)c2)cc1: 1.03
COCCn1c(Sc2ncnc3sccc23)nc2ccccc21: 1.8
CCCCCCCc1c(C)nc2c(OC)cccc2c1O: -0.9
CC1CN(c2nc(NCCc3ccc(O)cc3)nc(NCc3ccccc3-c3ccc(C(F)(F)F)cc3)n2)CC(C)N1 (stereo unspecified): 6.55
OCCNc1nc(Nc2ccc(Cl)cc2)nc2ccccc12: 1.54

Read the next record carefully.
-- ask Item under review: CCC1CCCCN1S(=O)(=O)c1ccc(NC(=O)c2cc(C)on2)cc1 (stereo unspecified) . Reported inhibition?
-- reply 3.74

* * *

A collection of molecules and their measured inhibition
target: Hexose transporter 1 (Plasmodium falciparum) (UniProt O97467); experiment: ST_JUDE_LEISH: Cytotoxicity at 2uM final concentration against transgenic Leishmania Mexicana promastigotes LmPfHT that are glucose transport deficient and complemented with the Plasmodium falciparum hexose transporter. Activity is measured by DNA content using SYBR green in vitro; format: functional
State just the number; it will be interpreted in %.

Here's what some known entries look like.
CC(C)(C)c1ccc(CN2CCC(NC(=O)c3ccc(-c4ccccc4Cl)s3)CC2)cc1: 7.04
O=[N+]([O-])c1cccc(-c2nc3cc(C4=NC5CCCCC5N4)ccc3[nH]2)c1 (stereo not drawn): 2.08

Read the next record carefully.
-- ask Item under review: N#Cc1ccc(OCCN(Cc2ccccc2C(F)(F)F)c2ccc(C#N)c(C(F)(F)F)c2)cc1 . Reported inhibition?
-- reply 9.42

* * *

target: Solute carrier family 2, facilitated glucose transporter member 1 (Homo sapiens); assay: ST_JUDE_LEISH: Cytotoxicity at 2uM final concentration against transgenic Leishmania Mexicana promastigotes LmGLUT1 that are glucose transport deficient and complemented with the human glucose transporter GLUT1. Activity is measured by DNA content using SYBR green in vitro; assay type: functional
Assign met whenever inhibition does not fall below 10%; assign not met whenever it does.

The examples below pair each entry with its known result.
COc1ccccc1CCNc1nc(C)cc(N[C@@H](Cc2ccccc2)C(=O)NCc2cccc(F)c2)n1: not met
CC(C)CN1CCC(COc2ccc3ncn(-c4cc(O[C@H](C)c5ccccc5C(F)(F)F)c(C(N)=O)s4)c3c2)CC1: met
COc1ccc2ncc(F)c(CCN3CCC(NCc4cc(F)c5c(c4)OCCO5)CC3)c2n1: met
N#Cc1ccc(/C=C/C(=O)NCCCCCN2CCN(C(=O)Nc3ccc(Cl)c(C(F)(F)F)c3)CC2)cc1: not met
C=CCN1C(=O)c2[nH]nc(-c3cc(C)c(C)cc3O)c2C1c1cccc(Br)c1 (configuration not stated): not met

-- ask Check this molecule for inhibition at or above 10%: O=C(CCC1CCCC1)N(Cc1ccc(-c2ccc(CNCCc3ccccn3)cc2)cc1)CC1CCCCN1 (configuration not stated)
-- reply met

-- ask Same again, this time with COc1ccc(-c2nc(NC(=O)Cc3cccc(OC)c3)sc2C)cc1
-- reply not met

* * *

target: Solute carrier family 2, facilitated glucose transporter member 1 (Homo sapiens) (UniProt P11166); assay: ST_JUDE_LEISH: Cytotoxicity at 2uM final concentration against transgenic Leishmania Mexicana promastigotes LmGLUT1 that are glucose transport deficient and complemented with the human glucose transporter GLUT1. Activity is measured by DNA content using SYBR green in vitro; assay type: functional
Sequence (P11166 whole entry): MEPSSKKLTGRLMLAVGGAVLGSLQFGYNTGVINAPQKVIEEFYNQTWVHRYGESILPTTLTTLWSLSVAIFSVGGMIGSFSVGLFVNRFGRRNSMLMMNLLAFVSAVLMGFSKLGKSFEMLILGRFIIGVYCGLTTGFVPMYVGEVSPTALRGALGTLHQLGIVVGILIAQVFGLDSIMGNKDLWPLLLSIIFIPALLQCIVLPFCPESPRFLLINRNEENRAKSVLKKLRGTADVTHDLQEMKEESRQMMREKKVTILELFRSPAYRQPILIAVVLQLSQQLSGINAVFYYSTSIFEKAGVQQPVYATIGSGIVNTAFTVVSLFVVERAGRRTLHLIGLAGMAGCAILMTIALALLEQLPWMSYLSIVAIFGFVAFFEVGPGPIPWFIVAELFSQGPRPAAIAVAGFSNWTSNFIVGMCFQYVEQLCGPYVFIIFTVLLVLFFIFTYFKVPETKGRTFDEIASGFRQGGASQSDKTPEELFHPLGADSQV
reported endpoint: inhibition (%)
State just the number; it will be interpreted in %.

Here's what some known entries look like.
CC(C)COc1ccc(Cl)cc1Cc1nc(-c2nc3ccc(CN4CCN(C)CC4)cc3[nH]2)co1: 8.24
COc1cc(C)nc2ccc(NC(=O)c3cc([N+](=O)[O-])cc([N+](=O)[O-])c3)cc12: 2.43
CNC(=O)C1Cc2c([nH]c3ccc(Cl)cc23)C2(CCN(CCc3ccccc3)CC2)N1 (stereo not given): 3.32
COc1c(C2=CCN(CCCCNC(=O)c3ccc(-c4ccc(C#N)cc4)cc3)CC2)c(C)cc2c1C(C)(C)CCC2(C)C: 2.63

Read the next record carefully.
-- ask Item under review: O=C(NCCCCN1CCC(c2ccc3c(c2OCc2ccncc2)CCCC3)CC1)c1ccc(-c2ccc(C(F)(F)F)cc2)cc1 . Reported inhibition?
-- reply 1.51

* * *

biological target: Glucose transporter (Leishmania mexicana) (UniProt O61059); experiment: ST_JUDE_LEISH: Cytotoxicity at 2uM final concentration against transgenic Leishmania Mexicana promastigotes LmGT2 that are glucose transport deficient and complemented with the L. Mexicana glucose transporter 2. Activity is measured by DNA content using SYBR green in vitro; format: functional
A collection of molecules and their measured inhibition
State just the number; it will be interpreted in %.

Here's what some known entries look like.
CC(C)(C)c1ccc(S(=O)(=O)Nc2ccccc2Cn2nc(N3CCNCC3)ccc2=O)cc1: 8.79
NCC1CCCN1Cc1ccc(-c2ccc(-c3nc4cc(F)ccc4[nH]3)cc2)cc1 (stereo unspecified): 4.54
COc1cc2c(cc1S(=O)(=O)c1ccc(COc3ccc(C(F)(F)F)cc3)cc1)CNCC2: -1.92
NC(=O)N1CCN(Cc2ccc(Br)cc2)CC1: 1
COc1cc(N(Cc2ccccc2C)S(=O)(=O)Cc2ccccc2[N+](=O)[O-])c(OC)cc1Cl: 3.39

Read the next record carefully.
-- ask Param readout= inhibition; system= Glucose transporter (Leishmania mexicana) (UniProt O61059); entry= CCN(CC)S(=O)(=O)c1ccc(C(C)NC(=O)c2ccccc2COc2ccccc2)cc1 (stereo unspecified) ; returns value.
-- reply 5.03

* * *

A collection of compounds and their measured inhibition
biological target: Hexose transporter 1 (Plasmodium falciparum) (UniProt O97467); assay: ST_JUDE_LEISH: Cytotoxicity at 2uM final concentration against transgenic Leishmania Mexicana promastigotes LmPfHT that are glucose transport deficient and complemented with the Plasmodium falciparum hexose transporter. Activity is measured by DNA content using SYBR green in vitro; format: functional
State just the number; it will be interpreted in %.

Cc1cc(C(=O)Nc2ccc(-c3ccccc3)cc2)no1: 0.53
CCc1ccc(NC(=O)c2cccc(CN3CCCN(Cc4ccc(OC)cc4)CC3)c2)cc1: 0.1
FC(F)(F)c1ccc(CNCC2CCN(Cc3ccc4c(c3)OCO4)CC2)cc1: 2.65
CCc1c[nH]c2c(N3CCCS3(=O)=O)cc(C(=O)N[C@@H](Cc3ccccc3)[C@H](O)CNC3CCCCC3)cc12: 2.13
COc1ccc(-n2ccnc2)cc1CNC1CCN(CC2Cn3c(=O)ccc4ccc(F)c2c43)CC1 (configuration not stated): 4.54
O=C(N[C@@H](Cc1ccccc1)[C@H](O)CNC1CCc2ccccc2C1)c1cc(C2CCCC2)cc(N2CCCC2=O)c1 (some centres not stated): 2.21

Read the next record carefully.
-- ask Item under review: CCOC(=O)C(C#N)NC(=O)C=Cc1ccccc1 (configuration not stated) . Reported inhibition?
-- reply 6.93

* * *

target: Glucose transporter (Leishmania mexicana) (UniProt O61059); test: ST_JUDE_LEISH: Cytotoxicity at 2uM final concentration against transgenic Leishmania Mexicana promastigotes LmGT2 that are glucose transport deficient and complemented with the L. Mexicana glucose transporter 2. Activity is measured by DNA content using SYBR green in vitro; assay type: functional
A collection of compounds and their measured inhibition
State just the number; it will be interpreted in %.

Here's what some known entries look like.
COc1ccc(-c2cccc(NC(=O)c3cccc(C#N)c3)c2)cc1CN1CCN(C)CC1: 3.24
Cc1[nH]c(C)c(-c2ccc(Oc3ccccc3)cc2)c(=O)c1Br: -0.53
O=c1cc(NCCCNCc2ccc(C(F)(F)F)c(F)c2)[nH]c2ccccc12: -0.68
CCN(CC)CCCCOc1ccc2c(c1)C(=O)c1cc(OCCCCN(CC)CC)ccc1-2: 0.2
CC1CCC(NCc2c(O)ccc3ccccc23)CC1 (configuration not stated): 2.46
CCOC(=O)c1cc(=O)c2ccc(OCC#N)cc2o1: 74.8
CCNc1cc(C(=O)N[C@@H](Cc2ccccc2)[C@H](O)CNC2C3CC4CC(C3)CC2C4)cc(N2CCCCS2(=O)=O)c1 (some centres not stated): -1.02
COc1ccc2nccc([C@@H](O)CN3CCC(NC(=O)/C=C/c4ccc5[nH]c(=O)ccc5c4)CC3)c2c1: 2.05

-- ask Item under review: CCCCNC(=O)[C@H](CC1CCCCC1)NC(=O)c1ccc(O)c(-c2cccc(C(F)(F)F)c2)c1 . Reported inhibition?
-- reply 3.61

-- ask Same again, this time with Nc1cccc(CNCc2cccc(-c3cccc(-c4nc5cc(F)ccc5[nH]4)c3)c2)c1
-- reply -0.66

-- ask Same again, this time with CC1(C)NC(N)=NC(=N)N1OCCOc1ccc(Cc2ccccc2)cc1
-- reply 0.68

-- ask Same again, this time with CC(C)(C)c1ccc(NC(=O)c2cccc(CN3CCCN(Cc4cccc(O)c4)CC3)c2)cc1
-- reply 1.99

-- ask Same again, this time with CC(C)(C)c1ccc(C(=O)Nc2ccc(NC(=O)c3ccc([N+](=O)[O-])o3)cc2)cc1
-- reply 1.76

-- ask Same again, this time with O=C(NCCCCN1CCN(c2cccc3c2OCCO3)CC1)c1ccc(NC(=O)c2cc(Cl)cc(Cl)c2)cc1
-- reply 3.56

-- ask Same again, this time with CCOC(=O)c1ccc(OCCOc2ccccc2)cc1
-- reply 0.6

-- ask Same again, this time with O=[N+]([O-])c1cccc(-c2nc3cc(C4=NC5CCCCC5N4)ccc3[nH]2)c1 (configuration not stated)
-- reply 1.26

-- ask Same again, this time with Cc1cc(NCc2ccccc2)nc(NCc2ccccc2)n1
-- reply 4.43
